# test system: AIP C122 (O00170) (Homo sapiens)
# Sequence (O00170 whole entry): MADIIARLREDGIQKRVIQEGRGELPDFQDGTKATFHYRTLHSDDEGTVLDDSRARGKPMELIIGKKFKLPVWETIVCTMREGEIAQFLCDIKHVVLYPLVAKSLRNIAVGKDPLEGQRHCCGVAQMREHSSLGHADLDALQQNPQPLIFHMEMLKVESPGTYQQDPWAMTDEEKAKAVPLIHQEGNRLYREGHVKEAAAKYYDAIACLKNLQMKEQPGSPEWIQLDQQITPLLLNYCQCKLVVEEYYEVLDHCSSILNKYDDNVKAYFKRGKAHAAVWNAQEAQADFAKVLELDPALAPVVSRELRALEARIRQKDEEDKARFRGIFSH
# test description: Competitive isoTOP-ABPP, cell lysates
# Type: binding
# test conditions: 500 μm, in-vitro_ramos
readout: isoTOP-ABPP reactivity ratio, O00170_C122
Numbers only.

C=CC(=O)Nc1cc(F)c(N2CCN(C(=O)OC(C)(C)C)CC2)c(F)c1 [compound 38] :: 1.5
Cc1ccc(C=C(C#N)C(=O)NCCN2CCOCC2)cc1 [compound 41] :: 1.0
CC(C)(C)c1cc(NC(=O)CCl)on1 [compound 32] :: 1.9
CCN(CC)c1ccc(S(N)(=O)=O)cc1NC(=O)CCl [compound 30] :: 2.0

What value of isoTOP-ABPP reactivity ratio, O00170_C122 has been recorded for this entry: C=CC(=O)N(Cc1cccnc1)c1cc(C(F)(F)F)cc(C(F)(F)F)c1 [compound 31]
0.6

----------
# test system: PCK2 C306 (Q16822) (Homo sapiens)
# Sequence (Q16822 33-640): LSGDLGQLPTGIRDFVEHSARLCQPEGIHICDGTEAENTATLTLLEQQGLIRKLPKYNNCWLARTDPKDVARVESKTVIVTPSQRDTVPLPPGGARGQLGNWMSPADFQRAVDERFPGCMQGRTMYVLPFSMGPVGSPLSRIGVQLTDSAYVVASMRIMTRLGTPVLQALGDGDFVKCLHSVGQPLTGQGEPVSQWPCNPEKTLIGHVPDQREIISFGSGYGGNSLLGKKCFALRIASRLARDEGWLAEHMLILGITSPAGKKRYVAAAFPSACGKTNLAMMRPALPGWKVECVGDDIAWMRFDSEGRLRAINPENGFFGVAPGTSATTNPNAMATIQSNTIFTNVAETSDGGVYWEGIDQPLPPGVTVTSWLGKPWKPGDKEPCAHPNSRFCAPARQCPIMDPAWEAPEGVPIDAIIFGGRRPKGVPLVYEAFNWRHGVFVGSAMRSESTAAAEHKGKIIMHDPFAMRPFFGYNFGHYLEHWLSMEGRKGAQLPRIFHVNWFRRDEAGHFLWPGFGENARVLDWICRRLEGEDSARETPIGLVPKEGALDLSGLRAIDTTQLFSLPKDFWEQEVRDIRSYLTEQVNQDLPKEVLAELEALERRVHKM
# test description: Competitive isoTOP-ABPP, cell lysates
# Assay type: binding
# test conditions: 500 μM, invitro, 231
readout: isoTOP-ABPP ratio, Q16822_C306
One number for each entry.

O=C(CCl)NC(=O)NC12CC3CC(CC(C3)C1)C2 [compound 12] :: 1.5
C=CC(=O)N(c1ccccc1)c1ccc(Br)cc1 [compound 5] :: 1.7

Can you give me isoTOP-ABPP ratio, Q16822_C306 for all of these, one by one?
1. O=C(CCl)N1CCN(S(=O)(=O)c2ccccc2F)CC1 [compound 10]
2. O=C(CCl)NCCc1c[nH]c2ccccc12 [compound 13]

[1.9, 0.9]

Which isoTOP-ABPP ratio, Q16822_C306 value belongs to Cn1cc(S(=O)(=O)N2CCOCC2)cc1C(=O)NC(=O)CCl [compound 11] ?
3.2

----------
Provide the reported isoTOP-ABPP ratio Q9UKF6_C498 of each item.
# test system: cysteines in MDA-MB-231 and Ramos cells (Homo sapiens, UniProt Q9UKF6)
# Sequence (Q9UKF6 whole entry, the tested form may be a part): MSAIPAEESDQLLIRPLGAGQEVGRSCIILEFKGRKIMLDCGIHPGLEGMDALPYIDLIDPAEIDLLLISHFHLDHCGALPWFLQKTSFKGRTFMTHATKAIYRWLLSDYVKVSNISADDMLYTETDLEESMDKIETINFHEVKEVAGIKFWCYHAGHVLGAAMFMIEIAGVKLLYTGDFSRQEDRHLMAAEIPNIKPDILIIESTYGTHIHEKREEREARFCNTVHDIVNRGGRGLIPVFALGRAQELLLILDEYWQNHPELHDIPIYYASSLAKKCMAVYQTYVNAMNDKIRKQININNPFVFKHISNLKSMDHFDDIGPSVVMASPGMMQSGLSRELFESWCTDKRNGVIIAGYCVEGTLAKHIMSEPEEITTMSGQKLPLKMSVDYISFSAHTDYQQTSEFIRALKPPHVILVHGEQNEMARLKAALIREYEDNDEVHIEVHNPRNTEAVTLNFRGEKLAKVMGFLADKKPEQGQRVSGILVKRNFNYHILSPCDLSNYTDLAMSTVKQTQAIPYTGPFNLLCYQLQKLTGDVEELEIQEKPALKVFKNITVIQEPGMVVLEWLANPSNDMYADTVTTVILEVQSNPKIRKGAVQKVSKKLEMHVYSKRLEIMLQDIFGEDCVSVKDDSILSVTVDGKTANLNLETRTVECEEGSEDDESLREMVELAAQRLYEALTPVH
# test description: Competitive isoTOP-ABPP in situ (fragment-treated cells)
# Type: cell-based
# test conditions: 200 μM, insitu, 231
Answers are plain numbers.

In the examples that follow, each entry is paired with its recorded isoTOP-ABPP ratio Q9UKF6_C498.
Cc1ccc(C=C(C#N)C(=O)NCCN2CCOCC2)cc1 :: 1.0
O=C(CCl)N1CCN(S(=O)(=O)c2ccccc2F)CC1 :: 20.0
O=C(CCl)NC(=O)NC12CC3CC(CC(C3)C1)C2 :: 4.1
CC1CCc2ccccc2N1C(=O)CCl (stereo not drawn) :: 20.0
O=C(CCl)NC12CC3CC(CC(C3)C1)C2 :: 1.4

Shift focus to the following entry.
Value lookup for isoTOP-ABPP ratio Q9UKF6_C498; key = `CC(C)CCOCCNC(=O)CCl`
1.5

----------
# test system: cysteines in MDA-MB-231 and Ramos cells (Homo sapiens)
# test description: Competitive isoTOP-ABPP in situ (fragment-treated cells)
# Assay type: cell-based
# test conditions: 200 μM, insitu, 231
Would you kindly list isoTOP-ABPP ratio O75439_C265 for each of these molecules?

For each listed entry, give its isoTOP-ABPP ratio O75439_C265.
1. COc1ccccc1OCCNC(=O)CCl
2. Cc1ccc(C=C(C#N)C(=O)NCCN2CCOCC2)cc1
3. C=CC(=O)N(Cc1cccnc1)c1cc(C(F)(F)F)cc(C(F)(F)F)c1
4. CC(C)CCOCCNC(=O)CCl

1: 0.6; 2: 1.3; 3: 1.0; 4: 1.6

----------
Exercise: for every item that follows, state its recorded isoTOP-ABPP ratio Q9UMS0_C213.
# test system: cysteines in MDA-MB-231 and Ramos cells (Homo sapiens, UniProt Q9UMS0)
# Sequence (Q9UMS0 10-254): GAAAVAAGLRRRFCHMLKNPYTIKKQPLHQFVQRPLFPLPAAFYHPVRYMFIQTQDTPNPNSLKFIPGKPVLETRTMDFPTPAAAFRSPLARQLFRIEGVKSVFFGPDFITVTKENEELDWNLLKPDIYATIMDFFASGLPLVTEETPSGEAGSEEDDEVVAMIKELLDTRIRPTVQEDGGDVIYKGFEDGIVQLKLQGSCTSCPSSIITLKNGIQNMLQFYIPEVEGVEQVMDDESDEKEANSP
# test description: Competitive isoTOP-ABPP in situ (fragment-treated cells)
# Assay type: cell-based
# test conditions: 200 μM, insitu, 231
One number for each entry.

O=C(CCl)N1CCN(S(=O)(=O)c2ccccc2F)CC1 [compound 10] :: 20.0
CC(C)CCOCCNC(=O)CCl [compound 27] :: 1.3
O=C(CCl)Nc1cccc2ncccc12 [compound 51] :: 1.8
O=C(CCl)NC(=O)NC12CC3CC(CC(C3)C1)C2 [compound 12] :: 20.0
C=CC(=O)Nc1cc(F)c(N2CCN(C(=O)OC(C)(C)C)CC2)c(F)c1 [compound 38] :: 3.5
C=CC(=O)N(Cc1cccnc1)c1cc(C(F)(F)F)cc(C(F)(F)F)c1 [compound 31] :: 1.5
CC1CCc2ccccc2N1C(=O)CCl (stereo not drawn) [compound 45] :: 7.1
O=C(CCl)NCCc1c[nH]c2ccccc12 [compound 13] :: 1.6

API: the following record is the query input.
If you can, please state the reported isoTOP-ABPP ratio Q9UMS0_C213 value of Cc1ccc(C=C(C#N)C(=O)NCCN2CCOCC2)cc1 [compound 41] .
0.9

----------
# test system: cysteines in MDA-MB-231 and Ramos cells (Homo sapiens)
# test description: Competitive isoTOP-ABPP in situ (fragment-treated cells)
# Type: cell-based
# test conditions: 200 μM, insitu, 231
Please respond with reported isoTOP-ABPP ratio Q13155_C291 for every item in the list.
Give bare numbers.

Previously resolved entries follow.
O=C(CCl)NC(=O)NC12CC3CC(CC(C3)C1)C2 :: 1.1
CC(C)CCOCCNC(=O)CCl :: 0.7
CC1CCc2ccccc2N1C(=O)CCl (stereo not shown) :: 7.3

For every item below, please supply its isoTOP-ABPP ratio Q13155_C291.
1. O=C(CCl)N1CCN(S(=O)(=O)c2ccccc2F)CC1
2. C=CC(=O)Nc1cc(F)c(N2CCN(C(=O)OC(C)(C)C)CC2)c(F)c1
3. C=CC(=O)N(Cc1cccnc1)c1cc(C(F)(F)F)cc(C(F)(F)F)c1

1.7
1.7
0.8

// each compound listed below needs its isoTOP-ABPP ratio Q13155_C291
1. O=C(CCl)Nc1cccc2ncccc12
2. O=C(CCl)NC12CC3CC(CC(C3)C1)C2
3. Cc1ccc(C=C(C#N)C(=O)NCCN2CCOCC2)cc1
4. COc1ccccc1OCCNC(=O)CCl

1.1
0.8
0.7
0.9

----------
# test system: cysteines in MDA-MB-231 and Ramos cells (Homo sapiens, UniProt Q96CM8)
# Sequence (Q96CM8 42-615): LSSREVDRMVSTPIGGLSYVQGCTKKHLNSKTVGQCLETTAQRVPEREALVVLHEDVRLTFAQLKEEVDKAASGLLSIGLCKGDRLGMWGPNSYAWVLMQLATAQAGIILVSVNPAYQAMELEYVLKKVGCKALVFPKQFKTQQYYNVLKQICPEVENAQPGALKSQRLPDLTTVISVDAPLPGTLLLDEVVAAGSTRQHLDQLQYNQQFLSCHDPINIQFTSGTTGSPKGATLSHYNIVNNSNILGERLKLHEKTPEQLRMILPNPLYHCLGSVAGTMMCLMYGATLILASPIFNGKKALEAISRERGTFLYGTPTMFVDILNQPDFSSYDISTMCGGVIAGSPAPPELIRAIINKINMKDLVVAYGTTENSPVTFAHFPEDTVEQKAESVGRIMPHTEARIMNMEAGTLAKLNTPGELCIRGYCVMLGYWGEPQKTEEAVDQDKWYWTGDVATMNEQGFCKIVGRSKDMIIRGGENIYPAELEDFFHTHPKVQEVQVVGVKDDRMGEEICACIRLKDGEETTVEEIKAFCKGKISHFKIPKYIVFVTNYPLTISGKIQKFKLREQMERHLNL
# test description: Competitive isoTOP-ABPP in situ (fragment-treated cells)
# Type: cell-based
# test conditions: 200 μM, insitu, 231
Quick rule for you: isoTOP-ABPP ratio Q96CM8_C64 under 1 gets Y, anything else gets N.

Consider the worked cases shown below.
O=C(CCl)N1CCN(S(=O)(=O)c2ccccc2F)CC1 :: N
CC(C)CCOCCNC(=O)CCl :: N
Cc1ccc(C=C(C#N)C(=O)NCCN2CCOCC2)cc1 :: Y

Check if isoTOP-ABPP ratio Q96CM8_C64 falls below 1 for `C=CC(=O)Nc1cc(F)c(N2CCN(C(=O)OC(C)(C)C)CC2)c(F)c1` .
N

Is it true that isoTOP-ABPP ratio Q96CM8_C64 reported for CC1CCc2ccccc2N1C(=O)CCl (stereo not drawn) is less than 1?
N

Does the reported isoTOP-ABPP ratio Q96CM8_C64 of `O=C(CCl)NCCc1c[nH]c2ccccc12` stay below 1?
N
